Below: compounds with Kd recorded for Advanced glycosylation end product-specific receptor (Homo sapiens) in separate published works.
Just a reminder that ties go to FALSE: only Kd strictly below 5 nM counts as TRUE.

INSERT INTO measurements (compound, target_desc, answer_label) VALUES
  ('N#Cc1ccc2c(CN3CCOCC3)cc(-c3ccc(C(=N)N)cc3)nc2c1', 'Advanced glycosylation end product-specific receptor (Homo sapiens)', 'TRUE'),
  ('CC(=O)NC(CN1CCCC(C(=O)O)C1)Cn1c(C)c(C)c2ccccc21 (stereo not shown)', 'Advanced glycosylation end product-specific receptor (Homo sapiens)', 'TRUE'),
  ('OC(Cn1ccnc1)Cn1c2ccccc2c2ccccc21 (stereo not shown)', 'Advanced glycosylation end product-specific receptor (Homo sapiens)', 'FALSE'),
  ('Cn1c(=O)n(CC(O)Cn2c3ccccc3c3ccccc32)c2ccccc21 (stereo not shown)', 'Advanced glycosylation end product-specific receptor (Homo sapiens)', 'TRUE'),
  ('N#Cc1ccc2c(CN3CCOCC3)cc(-c3ccc(C(N)=O)cc3)nc2c1', 'Advanced glycosylation end product-specific receptor (Homo sapiens)', 'TRUE'),
  ('OC(CN1CCCCC1)Cn1c2c(c3ccccc31)CCCC2 (stereo not shown)', 'Advanced glycosylation end product-specific receptor (Homo sapiens)', 'FALSE'),
  ('Cc1c(Cl)cccc1NC(=O)CNC(=O)c1ccccc1F', 'Advanced glycosylation end product-specific receptor (Homo sapiens)', 'FALSE'),
  ('Cc1c(CC(O)CN2CCCC(C(=O)O)C2)c2ccccc2n1C (stereo not shown)', 'Advanced glycosylation end product-specific receptor (Homo sapiens)', 'FALSE'),
  ('Cc1c(C)n(CC(O)CN2CCOCC2)c2ccc(F)cc12 (stereo not shown)', 'Advanced glycosylation end product-specific receptor (Homo sapiens)', 'FALSE'),
  ('N#Cc1ccc2c(CN3CCOCC3)cc(-c3ccc(CN)cc3)nc2c1', 'Advanced glycosylation end product-specific receptor (Homo sapiens)', 'FALSE');

* * *

Recorded Kd for compounds tested on Advanced glycosylation end product-specific receptor (Homo sapiens), drawn from a number of studies.
Quantity Measured: Kd (nM)

INSERT INTO results (compound, unit_annotation, measured_value) VALUES
  ('NC(=O)C1CCCN(CC(O)Cn2c3c(c4ccccc42)CCCC3)C1 (stereo not shown)', 'nM', 11),
  ('Cc1cc2n(c1)CCn1c(C)ccc1-2', 'nM', 1.2),
  ('CC(=O)NC(CN1CCCC(C(N)=O)C1)Cn1c(C)c(C)c2ccccc21 (stereo not shown)', 'nM', 12),
  ('CC(=O)NCc1ccc(-c2cc(C(=O)N3CCOCC3)c3ccc(C#N)cc3n2)cc1', 'nM', 3),
  ('COc1ccccc1-c1cc(C(F)(F)F)nc(N2CCOCC2)n1', 'nM', 0.55),
  ('Cc1c(C)n(CC(CN2CCOCC2)NC(=O)C(C)C)c2ccccc12 (stereo not shown)', 'nM', 62),
  ('N#Cc1ccc2c(CN3CCOCC3)cc(-c3ccc(CC(N)=O)cc3)nc2c1', 'nM', 12),
  ('C=CCOc1ccc2c(C(F)(F)F)cc(=O)oc2c1', 'nM', 6.5),
  ('Cc1nc2ccccc2n1CC(O)Cn1c2ccccc2c2ccccc21 (stereo not shown)', 'nM', 18),
  ('Oc1ccc(NCc2ccc(Br)cc2)cc1', 'nM', 1.4);
